- target: Cytochrome P450 2C19 (Homo sapiens)
- protocolText: Cytochrome P450 Family 2 Subfamily C Member 19 (CYP2C19) small molecule antagonists: luciferase reporter qHTS assay (AID 1671197); note: nearly all actives have a fitted effect of over 65% in size; note: potency is the fitted concentration of half-maximal effect
- recordedConditions: P450-Glo CYP2C19 enzyme, luciferin luminescence, 1 h; series mostly up to 115 µM
Results filed as inconclusive are left out. Activity calls are given as the source filed them. Calls come from the whole dose curve; as a rule, active = well fitted inhibition curve with a large enough effect in the repeat runs; inconclusive = weak or mixed curves; inactive = no such curve, though single readings can be large or run the other way.
attributeMeasured: Potency

{"columns": ["molecule", "target", "attributeMeasured", "measuredValue"],
 "data": [
  ["COCCO", "Cytochrome P450 2C19 (Homo sapiens)", "Potency", "inactive"],
  ["CCCCC(CC)(CO)CO", "Cytochrome P450 2C19 (Homo sapiens)", "Potency", "56.4 µM (active)"],
  ["CCN(CC)CCNC(C(=O)OCCC(C)C)c1ccccc1 (configuration not stated)", "Cytochrome P450 2C19 (Homo sapiens)", "Potency", "inactive"],
  ["SC1CCCC1", "Cytochrome P450 2C19 (Homo sapiens)", "Potency", "inactive"],
  ["COc1ccccc1OC(=O)Oc1ccccc1OC", "Cytochrome P450 2C19 (Homo sapiens)", "Potency", "9.77 µM (active)"]
]}

The value of Potency measured for the molecule C=CC(C)(CCC=C(C)C)OC(=O)c1ccccc1 (configuration not stated) turned out to be 15.9 µM (active)

The reported value for "CC(=O)N(O)CCCCCNC(=O)CCC(=O)N(O)CCCCCNC(=O)CCC(=O)N(O)CCCCCN" in terms of Potency is inactive

These data points were gathered from PubChem BioAssay (Tox21).
